- measurement target: SARS-CoV-2 NSP3 macrodomain (Mac1) (Severe acute respiratory syndrome coronavirus 2)
- experimental protocol: biochemical
- Assay type: binding
- assay conditions: dose-response; read-out: SARS CoV-2 macrodomain HTRF assay: Ki

{"columns": ["compound", "measurement target", "Ki [µM]"],
 "data": [
  ["C[C@H]1CC[C@H](CO)N(c2ncnc3[nH]ccc23)C1 (racemic)", "SARS-CoV-2 NSP3 macrodomain (Mac1) (Severe acute respiratory syndrome coronavirus 2)", 52],
  ["OC1CCC(O)(CNc2ncnc3[nH]ccc23)CC1 (stereo not drawn)", "SARS-CoV-2 NSP3 macrodomain (Mac1) (Severe acute respiratory syndrome coronavirus 2)", 240],
  ["CC1(C)C[C@@H](CO)N(c2ncnc3[nH]ccc23)C1.O=C(O)C(F)(F)F", "SARS-CoV-2 NSP3 macrodomain (Mac1) (Severe acute respiratory syndrome coronavirus 2)", 27],
  ["OCC1C2CCC(C2)N1c1ncnc2[nH]ccc12 (stereo not drawn)", "SARS-CoV-2 NSP3 macrodomain (Mac1) (Severe acute respiratory syndrome coronavirus 2)", 25],
  ["OCC1CC=CCN1c1ncnc2[nH]ccc12 (stereo not drawn)", "SARS-CoV-2 NSP3 macrodomain (Mac1) (Severe acute respiratory syndrome coronavirus 2)", 48],
  ["OC1(CNc2ncnc3[nH]ccc23)CCCC(C(F)(F)F)C1 (stereo not drawn)", "SARS-CoV-2 NSP3 macrodomain (Mac1) (Severe acute respiratory syndrome coronavirus 2)", 140],
  ["OC1(CNc2ncnc3[nH]ccc23)CCCCC1", "SARS-CoV-2 NSP3 macrodomain (Mac1) (Severe acute respiratory syndrome coronavirus 2)", 39],
  ["CC(C)(O)C1N(c2ncnc3[nH]ccc23)CCC1(C)C (stereo not drawn)", "SARS-CoV-2 NSP3 macrodomain (Mac1) (Severe acute respiratory syndrome coronavirus 2)", 93],
  ["OC1(CNc2ncnc3[nH]ccc23)CCCSC1 (stereo not drawn)", "SARS-CoV-2 NSP3 macrodomain (Mac1) (Severe acute respiratory syndrome coronavirus 2)", 49],
  ["OCC1CCC2(CCOCC2)CN1c1ncnc2[nH]ccc12 (stereo not drawn)", "SARS-CoV-2 NSP3 macrodomain (Mac1) (Severe acute respiratory syndrome coronavirus 2)", 400],
  ["CN(CC1(O)CCOCC1)c1ncnc2[nH]ccc12", "SARS-CoV-2 NSP3 macrodomain (Mac1) (Severe acute respiratory syndrome coronavirus 2)", 66],
  ["O=S1(=O)CCCC(O)(CNc2ncnc3[nH]ccc23)C1 (stereo not drawn)", "SARS-CoV-2 NSP3 macrodomain (Mac1) (Severe acute respiratory syndrome coronavirus 2)", 100],
  ["CC1(C)CCC(O)(CNc2ncnc3[nH]ccc23)CC1", "SARS-CoV-2 NSP3 macrodomain (Mac1) (Severe acute respiratory syndrome coronavirus 2)", 71],
  ["Cc1c[nH]c2ncnc(NCC3(O)CCOCC3)c12", "SARS-CoV-2 NSP3 macrodomain (Mac1) (Severe acute respiratory syndrome coronavirus 2)", 150],
  ["CC1CCCC(O)(CNc2ncnc3[nH]ccc23)C1 (stereo not drawn)", "SARS-CoV-2 NSP3 macrodomain (Mac1) (Severe acute respiratory syndrome coronavirus 2)", 37],
  ["OC1(CNc2ncnc3[nH]ccc23)CCOCC1", "SARS-CoV-2 NSP3 macrodomain (Mac1) (Severe acute respiratory syndrome coronavirus 2)", 210],
  ["OC[C@@H]1C[C@H](O)CN1c1ncnc2[nH]ccc12", "SARS-CoV-2 NSP3 macrodomain (Mac1) (Severe acute respiratory syndrome coronavirus 2)", 150],
  ["O[C@H]1CC[C@@H]2CCN(c3ncnc4[nH]ccc34)[C@@H]21", "SARS-CoV-2 NSP3 macrodomain (Mac1) (Severe acute respiratory syndrome coronavirus 2)", 26],
  ["O=C(O)C(F)(F)F.OC1([C@H]2CCCN2c2ncnc3[nH]ccc23)Cc2ccccc2C1", "SARS-CoV-2 NSP3 macrodomain (Mac1) (Severe acute respiratory syndrome coronavirus 2)", 3.4],
  ["C[C@@H]1CCN(c2ncnc3[nH]ccc23)[C@H](CO)C1 (racemic)", "SARS-CoV-2 NSP3 macrodomain (Mac1) (Severe acute respiratory syndrome coronavirus 2)", 93],
  ["Cc1c[nH]c2ncnc(NCC3(O)CCC(C)(C)CC3)c12", "SARS-CoV-2 NSP3 macrodomain (Mac1) (Severe acute respiratory syndrome coronavirus 2)", 610],
  ["OC[C@@H]1C[C@@H]2CCC[C@@H]2N1c1ncnc2[nH]ccc12", "SARS-CoV-2 NSP3 macrodomain (Mac1) (Severe acute respiratory syndrome coronavirus 2)", 26],
  ["CC1CCC(O)(CNc2ncnc3[nH]ccc23)CC1 (stereo not drawn)", "SARS-CoV-2 NSP3 macrodomain (Mac1) (Severe acute respiratory syndrome coronavirus 2)", 20],
  ["OCC1C=CCCN1c1ncnc2[nH]ccc12 (stereo not drawn)", "SARS-CoV-2 NSP3 macrodomain (Mac1) (Severe acute respiratory syndrome coronavirus 2)", 150]
]}

----------
- measurement target: SARS-CoV-2 NSP3 macrodomain (Mac1), P43 crystal form (Severe acute respiratory syndrome coronavirus 2)
- Type: binding
- assay conditions: ligand modeling in Mac1 crystal soak

{"columns": ["molecule", "Number of isomers bound"],
 "data": [
  ["OCC(Cc1ccoc1)Nc1ncnc2[nH]ccc12 (stereo not shown)", 1],
  ["O[C@H]1COC[C@@H]1Nc1ncnc2[nH]ccc12", 1],
  ["O=C(O)C(F)(F)F.OCC1(Nc2ncnc3[nH]ccc23)CC1", 1],
  ["OCCC(CO)Nc1ncnc2[nH]ccc12 (stereo not shown)", 1],
  ["OCC(Nc1ncnc2[nH]ccc12)C1CCC1 (stereo not shown)", 1],
  ["OC1CCCN(c2ncnc3[nH]ccc23)C1 (stereo not shown)", 1],
  ["OC[C@@H]1C[C@@H]2CCC[C@@H]2N1c1ncnc2[nH]ccc12", 1],
  ["OCC1CCCN1c1ncnc2[nH]ccc12 (stereo not shown)", 1],
  ["OCC(Nc1ncnc2[nH]ccc12)C1CCCC1 (stereo not shown)", 1],
  ["OCC(COCc1ccccc1)Nc1ncnc2[nH]ccc12 (stereo not shown)", 2],
  ["OCC(CN1CCCCC1)Nc1ncnc2[nH]ccc12 (stereo not shown)", 1],
  ["Cc1nn(C)cc1C1CCC(CO)N1c1ncnc2[nH]ccc12 (stereo not shown)", 1],
  ["CN(C)CC(CO)Nc1ncnc2[nH]ccc12 (stereo not shown)", 1],
  ["OCC(Cc1ccc(I)cc1)Nc1ncnc2[nH]ccc12 (stereo not shown)", 2],
  ["OCC1CC2(CCOCC2)CN1c1ncnc2[nH]ccc12 (stereo not shown)", 1],
  ["O=C(O)C(F)(F)F.OCC1(Nc2ncnc3[nH]ccc23)CCC1", 1],
  ["OCC(Cc1ccccc1)Nc1ncnc2[nH]ccc12 (stereo not shown)", 2],
  ["Cc1cc2c(=O)n(CCN3C(=O)c4ccccc4S3(=O)=O)nnc2s1", 1],
  ["CC1(C)CCC(CO)N(c2ncnc3[nH]ccc23)C1 (stereo not shown)", 2],
  ["CCC(Nc1ncnc2[nH]ccc12)C(C)O (stereo not shown)", 1],
  ["Cc1c(C)n(Cc2ccccc2)c2ncnc(N)c12", 1],
  ["CC(c1ccccc1)C(CO)Nc1ncnc2[nH]ccc12 (stereo not shown)", 1]
]}

----------
- measurement target: SARS-CoV-2 NSP3 macrodomain (Mac1), P43 crystal form (Severe acute respiratory syndrome coronavirus 2, UniProt P0DTD1)
- Format: binding
- assay conditions: stereoisomer(s) of ligand modeled in Mac1 crystal structure
measured parameter: Isomers modeled

{"columns": ["molecule", "data value"],
 "data": [
  ["OCC(Cc1ccccc1)Nc1ncnc2[nH]ccc12 (stereo not shown)", "S,R"],
  ["OCC(Cc1ccccn1)Nc1ncnc2[nH]ccc12 (stereo not shown)", "R,S"],
  ["Cc1ccc(CC(CO)Nc2ncnc3[nH]ccc23)cc1 (stereo not shown)", "S,R"],
  ["OCC1COCCN1c1ncnc2[nH]ccc12 (stereo not shown)", "R,S"],
  ["CC(CNC(=O)c1ccc2c(c1)CCC(=O)N2)C(=O)O (stereo not shown)", "R,S"],
  ["NC(=O)C1(O)CCN(c2ncnc3[nH]ccc23)C1 (stereo not shown)", "S,S"]
]}

----------
Listed compounds paired with reported Average % competition
- measurement target: SARS-CoV-2 NSP3 macrodomain (Mac1) (Severe acute respiratory syndrome coronavirus 2, UniProt P0DTD1)
- experimental protocol: biochemical
- Assay type: binding
measured parameter: Average % competition (%)

{"columns": ["compound", "inequality operator", "data value"],
 "data": [
  ["CC(NC(=O)c1ccc(N)nc1Cl)C(O)c1cccc(F)c1 (centres unmarked) [AVI-349]", "=", 15],
  ["Nc1ncnc(N2CCC(C(F)(F)F)C3(CCC3)C2)c1Cl (centres unmarked) [AVI-324]", "<", 10],
  ["N#Cc1cnc(CSc2nc(-c3ccccc3)co2)nc1N [AVI-332]", "<", 10],
  ["CC1c2ccsc2CCN1C(=O)Cc1csc(-c2ccccc2)n1 (centres unmarked) [AVI-287]", "=", 0],
  ["O=C(NCCCN1C(=O)NC2(CCCC2)C1=O)c1ccc(O)nc1 [AVI-300]", "=", 8],
  ["CCOc1ccc(-c2nc(CC(=O)N3CCn4cccc4C3C)cs2)cc1 (centres unmarked) [AVI-325]", "=", 0],
  ["CC(OC(=O)c1ccc2nc(N)sc2c1)C(=O)N1CCCCCC1 (centres unmarked) [AVI-304]", "=", 0],
  ["CNC(=O)c1ccc(NC(=O)C2CC(=O)Nc3ccccc32)cc1 (centres unmarked) [AVI-305]", "=", 0]
]}

Reference source for all entries: paper doi:10.1101/2024.08.25.609621
